- ASSAY_TEXT: amyloid nucleation score (Sup35N fusion, yeast selection) (log enrichment); library NNK1; higher = more nucleation; inactive = no reads after selection;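 note: zero at mode of non-aggregating sequences after 7 days selection at 30°C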
MEASUREMENT_LABEL: amyloid nucleation score
No unit in the answer, only the number.

Recorded results for 5 substances are shown here.
{"SUBSTANCE": "SFREHGRSSNRP", "amyloid nucleation score": 0.423}
{"SUBSTANCE": "GFSKMLLAIVSIQDKGSWDA", "amyloid nucleation score": 2.41}
{"SUBSTANCE": "TSSVYLWVSQCYGMNSLLNL", "amyloid nucleation score": -0.118}
{"SUBSTANCE": "RSSCKTTLEIIGVLRMRVYA", "amyloid nucleation score": 0.769}
{"SUBSTANCE": "SNAPFRKAQQRGLYKWWSWR", "amyloid nucleation score": 0.728}

Per the records, this substance ( TASGVDIVRRGCPRLVMLVV ) has amyloid nucleation score equal to -0.42

Per the records, this substance ( LCAARNFSL ) has amyloid nucleation score equal to -0.277

Per the records, this substance ( MLSYVRIGSDQDVVWSDLQR ) has amyloid nucleation score equal to 2

Per the records, this substance ( KSSYLFMTSWPYWVRGMSYA ) has amyloid nucleation score equal to 0.01

Per the records, this substance ( TLESCGW ) has amyloid nucleation score equal to 0.773

The values you see were collected from the supplement of paper PMC12042874.
